// provenance: PubChem BioAssay (NCI)

# Tested on: HL-60(TB) leukemia
# assay_name: NCI tumour cell line growth inhibition, 48 h
Listed here: items and their measured TGI.

For the molecule shown here, N#Cc1ccccc1/C=N/O , give the reported TGI. > 62.2 µM

Next molecule up: CC(=O)OCC(OC(C)=O)C(OC(C)=O)C(OC(C)=O)C(/C=N\Nc1nc2ccccc2c(=O)[nH]1)OC(C)=O (configuration not stated) > 100 µM

Continuing:
Name the recorded TGI for CC(C)(C)C1=NN=C2c3ccccc3C(=O)C21 (configuration not stated) . > 100 µM

Again, but for c1ccc(-c2cc(-c3cc(-c4ccccc4)no3)on2)cc1 > 100 µM

Proceed to O=CNc1ccc2c(c1)Cc1cc([N+](=O)[O-])ccc1-2 > 100 µM

Same read-out for COc1ccc2oc(-c3ccc(Cl)cc3)c(N3CCN(C)CC3)c2c1 ? > 20 µM

Another molecule: COc1ccc(C2SC(C)C(=O)N2NC(=O)C(O)c2ccccc2)cc1 (configuration not stated) > 100 µM

Now the molecule COc1ccc(OC)c(/C=C/c2cnnc3ccccc23)c1 > 10 µM

// same read-out, input: Cc1ccc(C(=O)Nc2ccc(CP(=O)(O)O)cc2)cc1NC(=O)Nc1cc(C(=O)Nc2ccc(CP(=O)(O)O)cc2)ccc1C > 100 µM

One more molecule: O=C1CSc2ccncc2N1 > 100 µM

Then what about the molecule N=C(N)c1ccc(-c2ccc(-c3ccc(C(=N)N)cc3)o2)cc1 ? > 100 µM

And O=C(NC1CCN(Cc2ccccc2)CC1)c1ccccc1I ? > 100 µM

----------
# System: MDA-MB-435
# assay_name: NCI tumour cell line growth inhibition, 48 h
Property: TGI; scope: individual compounds

Take a look at these entries with their results.
Return reported TGI; argument: N=c1c2ccccc2nc2oc3ccc(Cl)cc3n12 > 100 µM

CC1(c2nc3cc(Cl)c(Cl)cc3[nH]2)CCC(C(=O)O)C(C)(C)O1 (stereo unspecified) , same question. > 100 µM

Continuing:
I would be grateful if you could share the reported TGI for CCOC(=O)C(SCCO)C(C(=O)OCC)n1cc(C)c(=O)[nH]c1=O (stereo unspecified) . > 56.1 µM

Please do the same for Clc1ccc(CSCc2ccc(Cl)cc2Cl)c(Cl)c1 as well. > 100 µM

Another compound to look at: Clc1cccc(Cl)c1C1SCc2nc3ncccc3n21 (stereo unspecified) > 100 µM

Follow-up item: CC(=O)OCC(OC(C)=O)C(OC(C)=O)C(OC(C)=O)C(/C=N\Nc1nc2ccccc2c(=O)[nH]1)OC(C)=O (stereo unspecified) > 100 µM

----------
# System: SN12C renal
# assay_name: NCI tumour cell line growth inhibition, 48 h
property_name: GI50

Record excerpt, results attached:
Find the recorded GI50 belonging to COc1ccc2cc(C(=O)/C=C/c3ccccc3OC)ccc2c1 and report it. 1970 nM

Param item: Cc1cccc2c(=O)c3c(sc12)c(NCCN)nc1ccccc13 754 nM

// repeat for O=CNc1ccc2c(c1)Cc1cc([N+](=O)[O-])ccc1-2 and report > 26200 nM

Repeat with COc1ccc(C2SC(C)C(=O)N2NC(=O)C(O)c2ccccc2)cc1 (stereo not given) > 100000 nM

Attention now shifts to the item below.
Reported GI50 for Cc1ccc(S(=O)(=O)C2=C3C(=C(c4ccccc4)c4ccccc43)CN(S(=O)(=O)c3ccc(C)cc3)C2)cc1 : what is it? 3040 nM
